System: SW480 colon cancer cells
Assay: Cell viability assay (CellTiter-Blue) in SW480 colon cancer cells
Type: cell-based
Conditions: Homo sapiens, 96 h; SW480 cell viability, four days incubation
quantity-measured: EC50 (nM)
Numeric only. Scale: nM

structure-string: c1ncc(-c2ccc3[nH]nc(-c4cc5c(N6CCCCC6)cncc5[nH]4)c3c2)cn1
EC50 / nM: 2900
--
structure-string: CS(=O)(=O)NCc1cc(F)cc(-c2cncc3[nH]c(-c4n[nH]c5ccc(-c6cncc(NC(=O)C7CCC7)c6)cc45)cc23)c1
EC50 / nM: 1100
--
structure-string: CN1CCN(c2cncc3[nH]c(-c4n[nH]c5ccc(-c6cncc(CNCc7ccccc7)c6)cc45)cc23)CC1
EC50 / nM: 3630

Task item: Need EC50 of O=C(Nc1cncc(-c2ccc3[nH]nc(-c4cc5c(-c6cccnc6)cncc5[nH]4)c3c2)c1)C1CCCC1 , thanks.
Reply: 2030

###

Tested on: Wnt activity (Sp5-Luc reporter, SW480 colon carcinoma cells)
Assay: Screening assay for Wnt activity: Sp5-Luc reporter gene assay in SW480 cells
Type: cell-based
Details: Homo sapiens; SW480 Sp5-Luc reporter, overnight incubation
quantity-measured: pEC50
Recall that pEC50 is obtained by taking minus log10 of the concentration measured in molar.

structure-string: Fc1ccccc1-c1cncc2[nH]c(-c3n[nH]c4ccc(-c5cncc(CN6CCCCC6)c5)cc34)cc12
experimental-value: 5.37

Task item: pEC50 for CCCC(=O)Nc1cncc(-c2ccc3[nH]nc(-c4cc5c(-c6ccc(F)cc6)cncc5[nH]4)c3c2)c1 ?
Reply: 5.82

Task item: Bench note: what pEC50 did Fc1ccccc1-c1cncc2[nH]c(-c3n[nH]c4ccc(-c5cncc(CN6CCC(F)(F)C6)c5)cc34)cc12 show?
Reply: 6.20

###

Catalogue of pEC50 values
Tested on: Primary human fibroblasts derived from IPF patients (LL29 cells)
Assay: Inhibition of the fibrotic process: αSMA staining in TGF-β1-treated LL29 fibroblasts
Assay type: cell-based
Details: Fibroblast, 96 h, LL29 cells, TGF-β1 20 ng/mL, 4 days, % αSMA-positive cells
Worth noting: pEC50 values are minus log10 of concentrations stated in mol/L.

# annotated cases, reported pEC50 shown
structure-string: Fc1ccccc1-c1cncc2[nH]c(-c3n[nH]c4ccc(-c5cn[nH]c5)cc34)cc12
pEC50: 6.79

structure-string: CN1CCN(c2cncc3[nH]c(-c4n[nH]c5ccc(-c6cccnc6)cc45)cc23)CC1
pEC50: 6.11

structure-string: O=C(Nc1cncc(-c2ccc3[nH]nc(-c4cc5c(-c6ccncc6)cncc5[nH]4)c3c2)c1)C1CCCCC1
pEC50: 5.00

Lab note: next molecule to report on.
Task item: // returns reported pEC50 for input CN(C)Cc1cncc(-c2ccc3[nH]nc(-c4cc5c(-c6cccc(F)c6)cncc5[nH]4)c3c2F)c1
Reply: 5.77

###

System: Wnt activity (Sp5-Luc reporter, SW480 colon carcinoma cells)
Assay: Screening assay for Wnt activity: Sp5-Luc reporter gene assay in SW480 cells
Assay type: cell-based
Details: Homo sapiens; SW480 Sp5-Luc reporter, overnight incubation
The following compounds are listed with their measured pEC50 values.
Answer as the number alone; pEC50 is minus log10 of concentration in mol/L.

Examples with their reported pEC50 follow.
compound: c1cc2cc(-c3n[nH]c4ccc(-c5cncc(OCCN6CCCC6)c5)cc34)[nH]c2cn1 [Compound 658]
pEC50: 5.73
//
compound: Fc1ccc(-c2cncc3[nH]c(-c4n[nH]c5ccc(C6=CCNCC6)cc45)cc23)cc1 [Compound 522]
pEC50: 5.40
//
compound: CN1CCN(c2cncc3[nH]c(-c4n[nH]c5ccc(-c6cncc(CNCc7ccccc7)c6)cc45)cc23)CC1 [Compound 248]
pEC50: 5.48

Moving on to the next compound.
Task item: Can you share its pEC50? I mean this compound: Nc1cncc(-c2ccc3[nH]nc(-c4cc5c(N6CCCCC6)cncc5[nH]4)c3c2)c1 [Compound 171]
Reply: 5.44

###

In this section we review reported pEC50 values for a set of molecules.
Tested on: Primary human fibroblasts derived from IPF patients (LL29 cells)
Assay: Inhibition of the fibrotic process: αSMA staining in TGF-β1-treated LL29 fibroblasts
Assay type: cell-based
Details: Fibroblast, 96 h, LL29 cells, TGF-β1 20 ng/mL, 4 days, % αSMA-positive cells
# pEC50: negative log10 of molar concentration; output just the value

Example molecules with recorded pEC50:
molecule: CCC(=O)Nc1cncc(-c2ccc3[nH]nc(-c4cc5c(-c6cc(F)cc(CNS(C)(=O)=O)c6)cncc5[nH]4)c3c2)c1 [Compound 477]
quantity-measured: pEC50
experimental-value: 5.79
--
molecule: Fc1cccc(-c2cncc3[nH]c(-c4n[nH]c5ccc(-c6ccncc6)cc45)cc23)c1 [Compound 18]
quantity-measured: pEC50
experimental-value: 6.01

Task item: Form field - read-out: pEC50; system: Primary human fibroblasts derived from IPF patients (LL29 cells); submitted item: CS(=O)(=O)NCc1cc(F)cc(-c2cncc3[nH]c(-c4n[nH]c5ccc(-c6cncc(NC(=O)Cc7ccccc7)c6)cc45)cc23)c1 [Compound 486]
Reply: 5.32

Task item: Observed pEC50 on Primary human fibroblasts derived from IPF patients (LL29 cells) for CCCC(=O)Nc1cncc(-c2ccc3[nH]nc(-c4cc5c(-c6ccncc6)cncc5[nH]4)c3c2)c1 [Compound 129] , please.
Reply: 5.21

Task item: Requested read-out pEC50, target or system Primary human fibroblasts derived from IPF patients (LL29 cells), entry O=C(Nc1cncc(-c2ccc3[nH]nc(-c4cc5c(-c6cccc(F)c6)cncc5[nH]4)c3c2)c1)C1CC1 [Compound 20]
Reply: 6.91

Task item: Request - read-out pEC50 | tested on Primary human fibroblasts derived from IPF patients (LL29 cells) | molecule CC(C)Nc1cncc(-c2ccc3[nH]nc(-c4cc5c(-c6cc(F)cc(CNS(C)(=O)=O)c6)cncc5[nH]4)c3c2)c1 [Compound 488]
Reply: 5.65

Task item: Under Primary human fibroblasts derived from IPF patients (LL29 cells): pEC50 value of CN(C)Cc1cncc(-c2cc(F)c3[nH]nc(-c4cc5c(-c6cccc(F)c6)cncc5[nH]4)c3c2)c1 [Compound 991] ?
Reply: 5.91

Task item: Hello, I am looking for reported pEC50 with Primary human fibroblasts derived from IPF patients (LL29 cells) for Fc1ccc(-c2cncc3[nH]c(-c4n[nH]c5ccc(C6=CCNCC6)cc45)cc23)cc1 [Compound 522] . Could you help?
Reply: 5.57

Task item: Record COc1cncc(-c2ccc3[nH]nc(-c4cc5c(-c6ccsc6)cncc5[nH]4)c3c2)c1 [Compound 676] : what is its pEC50 with Primary human fibroblasts derived from IPF patients (LL29 cells)?
Reply: 6.36

###

Some compounds, each annotated with its measured EC50.
Test system: SW480 colon cancer cells
Assay: Cell viability assay (CellTiter-Blue) in SW480 colon cancer cells
Type: cell-based
Conditions: Homo sapiens, 96 h; SW480 cell viability, four days incubation

structure-string: c1cncc(-c2cncc3[nH]c(-c4n[nH]c5ccc(-c6cncnc6)cc45)cc23)c1
EC50: > 10 µM
--
structure-string: c1cncc(-c2cncc3[nH]c(-c4n[nH]c5ccc(-c6cncc(CN7CCCCC7)c6)cc45)cc23)c1
EC50: 3.37 µM
--
structure-string: CC(C)CC(=O)Nc1cncc(-c2ccc3[nH]nc(-c4cc5c(-c6ccncc6)cncc5[nH]4)c3c2)c1
EC50: > 10 µM

Task item: # input compound: CN1CCN(c2cncc3[nH]c(-c4n[nH]c5ccc(-c6cncc(NC(=O)CC7CCNCC7)c6)cc45)cc23)CC1 ; wanted: its EC50
Reply: > 10 µM

###

Entries and their EC50
Test system: Wnt activity (Sp5-Luc reporter, SW480 colon carcinoma cells)
Test: Screening assay for Wnt activity: Sp5-Luc reporter gene assay in SW480 cells
Type: cell-based
Details: Homo sapiens; SW480 Sp5-Luc reporter, overnight incubation
Please state the figure in nM; there is no need to write the unit.

These solved cases illustrate the format of a correct answer.
structure-string: Fc1ccccc1-c1cncc2[nH]c(-c3n[nH]c4ccc(-c5cn[nH]c5)cc34)cc12
system-name: Wnt activity (Sp5-Luc reporter, SW480 colon carcinoma cells)
quantity-measured: EC50
experimental-value: 49
--
structure-string: c1ncc(-c2ccc3[nH]nc(-c4cc5c(N6CCCCC6)cncc5[nH]4)c3c2)cc1OC1CCCCC1
system-name: Wnt activity (Sp5-Luc reporter, SW480 colon carcinoma cells)
quantity-measured: EC50
experimental-value: 1120
--
structure-string: CCCCC(=O)Nc1cncc(-c2ccc3[nH]nc(-c4cc5c(-c6ccoc6)cncc5[nH]4)c3c2)c1
system-name: Wnt activity (Sp5-Luc reporter, SW480 colon carcinoma cells)
quantity-measured: EC50
experimental-value: 915

Task item: Find the recorded EC50 belonging to CC(C)C(=O)Nc1cncc(-c2ccc3[nH]nc(-c4cc5c(-c6ccccc6F)cncc5[nH]4)c3c2)c1 and report it.
Reply: 626

Task item: Any idea what EC50 was measured for CCCCC(=O)Nc1cncc(-c2ccc3[nH]nc(-c4cc5c(-c6ccccc6F)cncc5[nH]4)c3c2)c1 ?
Reply: 1760

Task item: Given CS(=O)(=O)NCc1cc(F)cc(-c2cncc3[nH]c(-c4n[nH]c5ccc(-c6cncc(OCc7ccccc7)c6)cc45)cc23)c1 , state its recorded EC50.
Reply: 2150
